Test: CEETOX_H295R_PROG: CeeTox H295R High-throughput Steroidogenesis Assay for Progesterone (PROG) (AID 2283442);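 on AC50: human H295R adrenal cells primed with 10 µM forskolin before dosing; progesterone secreted into medium by H295R cells measured by HPLC-MS/MS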
Conditions: actives raise or lower the signal
Calls of active or inactive are those of the source. How the source made its calls: active means hit-call score of the fitted dose curve at least 0.9, where 1 is the maximum; inactive means score below 0.9.
measure.name: AC50

Please review the entries below; each comes with its answer.
>  <mol.smiles>
C[C@]12CCC(=O)C[C@@H]1CC[C@@H]1[C@@H]2CC[C@]2(C)[C@@H](O)CC[C@@H]12

>  <result>
1080 nM (active)

$$$$
>  <mol.smiles>
Nc1ccc(-c2ccc(N)c(Cl)c2)cc1Cl

>  <result>
inactive

$$$$
>  <mol.smiles>
C[C@]12CC[C@H](O)CC1=CC[C@@H]1[C@@H]2CC[C@]2(C)C(=O)CC[C@@H]12

>  <result>
inactive

$$$$
>  <mol.smiles>
O=C(Nc1ccc2[nH]ccc2c1)c1cc2cc(F)ccc2n1Cc1cccc(F)c1

>  <result>
4840 nM (active)

$$$$
>  <mol.smiles>
COP(=O)(OC)O/C(=C\Cl)c1cc(Cl)c(Cl)cc1Cl

>  <result>
inactive

$$$$

Query :: Given CN(CCCC(=O)c1cccnc1)N=O , state its recorded AC50.
Result :: inactive

Source listed as PubChem BioAssay (EPA / NIEHS).
